measurement-notes: Stability in rat liver assessed as parent compound remaining at 1 ug/ml incubated for 1 hr by LC-MS/MS analysis
Assay type: ADME, tissue-based
measurement-setup: at 1 µg/mL, read-out: Stability
value-type: remaining at 1 h, 1 ug/ml (%)

>  <substance>
H-GWEALKYLWNLLQYW-OH

>  <number>
80

$$$$

====

measurement-notes: Stability in rat plasma assessed as parent compound remaining at 1 ug/ml incubated for 1 hr by LC-MS/MS analysis
Format: ADME, cell-free
measurement-setup: at 1 µg/mL, read-out: Stability
Bridge positions count the residues as written; N and C are the ends. Square brackets hold non-standard residues; d marks the D form. Peptide text beside a SMILES is read from it. S5 = C=CCCC[C@](C)(N)C(=O)O

>  <molecule>
CC(=O)NCC(=O)N[C@@]1(C)CCC/C=C\CCC[C@@](C)(C(=O)N[C@@H](Cc2ccc(O)cc2)C(=O)N[C@@H](CC(C)C)C(=O)N[C@@]2(C)CCC/C=C\CCC[C@@](C)(C(=O)N[C@@H](Cc3ccc(O)cc3)C(=O)N[C@@H](Cc3c[nH]c4ccccc34)C(N)=O)NC(=O)[C@H](CC(C)C)NC(=O)[C@H](CC(C)C)NC(=O)[C@H](CC(N)=O)NC2=O)NC(=O)[C@H](CC(C)C)NC(=O)[C@H](C)NC(=O)[C@H](CCC(=O)O)NC1=O (Ac-G[S5]EAL[S5]YL[S5]NLL[S5]YW-NH2; staple (Z) 2-6, 9-13)

>  <remaining at 1 h, 1 ug/ml>
> 99%

$$$$
